Assay: protein stability index of a GFP-peptide fusion (yeast GPS) (PSI 1-4); higher = more stable; sorted into four equal gates, so the index is relative within each strain
Conditions: pdr5∆
Assign T whenever protein stability index does not fall below 3; assign F whenever it does.

Below, 5 sequences whose answers are already recorded.
IVDKYIGESARIIREMF [RPT4]	F
LQIHSRKMTTDDDINWQ [RPT5]	T
VGSVTYQVDEDVKSSLS [YJL039C/NUP192]	T
FLSKPSKALYPDYYMII [SNF2]	F
QMMSKGIGALFTQQELQ [RPC34]	T

Next:
Q: Hi team, for HRCAIRSGALIKFKKCD [SSN2] , is the recorded protein stability index at or above 3?
Result: F
